assayed target: T1, human HER2 (human, UniProt P04626 23-1255)
T1 construct: also called hHER2
assay details: FACS CHO-HER2, 2000 nM
For each record, write down the corresponding MCF.

Worked cases, MCF given:
18B05 (VHH) VHH: EVQLVESGGGLVQAGGSLRLSCAASGLTFGSAPMGWYRQAPGKERELVAYISGDERIWYGDSVKGRFTISRDTTKNTLYLQMNSLKPEDTAVYYCVSDVKVRHWGQGTQVTVSS	77
17C08 (VHH, also called 17C8) VHH: EVQLVESGGGLMQAGDSLRLSCAASGRAFSSYALGWFRRAPGKERECVAATDRLGDNTYFPDSVKGRFTISRDNAKNTLYLQMNNLKPEDTAVYYCAAGAVRYGVSTSPMNYNYWGQGTQVTVSS	1220
04C07 (VHH, also called HER3MS04C07; HER3MS004C07) VHH: EVQLVESGGGLVQAGGSLRLSCAASGFTFSSYPMSWVRQAPGKGPAWVSTVSPGGITTSYADSVKGRFTISRDNAKNTLYLQMNSLKPEDTAVYYCLRDLNNRGQGTQVTVSS	154
17E08 (VHH) VHH: EVQLVESGGGLVQPGGSLRLSCSASGSIFGLNAMGWYRQTPGKERELVAGITSITRVGSTRYADSAKGRFTISGDYAKNTVYLQMNSLKPEDTGVYYCRMSIVKSGGADYWGQGTQVTVSS	73
18G11 (VHH, c-myc, His6-tagged form as expressed; also called HER3MS18G11; HER3MS018G11) VHH: EVQLVESGGGLVQPGGSLRLSCAASGTLFKINAMGWYRQAPGKRRELVALITSSDTTDYAESVEGRFTISRDNTWNAVYLQMNSLKPEDTAVYYCHSDHYSMGVPEKRVIMYGQGTQVTVSS	65

Each binder below has a reported value. Please supply its MCF.
1. 17B05 (VHH, also called HER3MS17B05; HER3MS017B05) VHH: EVQLVESGGGLVQPGGSLRLSCAASGSIGGLNAMAWYRQAPGKERELVAGIFGVGSTRYADSVKGRFTISRDIAKNTVFLQMNSLNSEDTAVYYCRMSSVTRGSSDYWGQGTQVTVSS
2. 21B02 (VHH) VHH: EVQLVESGGGLVQPGGSLRLSCAASGFTFDYYTIGWFRQAPGKEREGVSCISSRDGDSYYADSVKGRFTISRDNAKNTAYLQMNSLKPEDTAVYYCAASASDYGLGLELFHDEYNYWGQGTQVTVSS
3. 18E08 (VHH) VHH: EVQLVESGGGLVQPGGSLRLSCAASGTLFKINAMGWYRQAPGKQRELVALITSSDTTDYAESVEGRFTISRDNTWNAVYLQMNSLKPEDTAVYYCHSDHYSMGVPEKRVIMYGQGTQVTVSS

Output:
[134, 8570, 78]
